system: MDA-MB-231 breast; assay: NCI tumour cell line growth inhibition, 48 h
This section presents compounds with their documented GI50 values.

compound	GI50
O=C1C=C(OCCCl)C(=O)c2c(O)ccc(O)c21	3.29 µM
Oc1ccc(O)c2c1C1(Cl)C(Cl)=C(Cl)C2(Cl)C1(Cl)Cl	4.65 µM
CNC(=O)c1cncc(/C=C/c2c(Cl)cccc2Cl)c1	> 15.8 µM
COc1cc2nc(N3CCC[C@@H](NC4=CC(=O)c5ccccc5C4=O)C3)nc(N)c2cc1OC	1.69 µM
CCC(=O)c1c(C(F)(F)F)n([O-])c2ccccc2[n+]1=O	2.23 µM
CN(CCCN(C)CCC1CCCCC1)CCC1CCCCC1	1.38 µM
NCCSC(C[N+](=O)[O-])c1ccccc1Cl (stereo not given)	12 µM
Cc1cc(Cl)ccc1Nc1nc(C(F)(F)F)ccc1C(=O)Nc1cccc(C(F)(F)F)c1	2.03 µM
CCN(CC)CCC(=O)O[C@H]1CC[C@H](CC(C)[C@H]2CC(=O)C(C)C=C(C)[C@H](OC(=O)CCN(CC)CC)C(OC)C(=O)[C@@H](C)CC(C)/C=C/C=C/C=C(C)C(OC)CC3CC[C@H](C)[C@](O)(O3)C(=O)C(=O)N3CCCCC3C(=O)O2)CC1OC (stereo not given in full)	1.86 µM
CCCC(CCC)C(=O)OCC1(CO)C/C(=C\c2ccc(C(F)(F)F)cc2)C(=O)O1 (stereo not given)	7.66 µM
